Test: in vitro
Conditions: human, Caco-2, pH 7.4
result_type: Papp B→A at 90 min, 10 μM

Q) Given the entry `CCN1CCN(c2cccc3nc([C@H]4CCC[C@@H](c5ncccc5C)N4C)c(CO)n23)CC1` , report its measured Papp B→A at 90 min, 10 μM.
A) 10 to 30 ×10⁻⁶ cm/s

Q) Continue with `CCN1CCN(c2cccc3nc([C@H]4CCC[C@@H](c5ncccc5Cl)N4C)c(Cl)n23)CC1`
A) 0.1 to 10 ×10⁻⁶ cm/s

Q) Continue with Cc1cccnc1[C@H]1CCC[C@@H](c2nc3ccccn3c2CCCN2CCN(C)CC2)N1C (stereo in doubt)
A) 10 to 30 ×10⁻⁶ cm/s

Q) Continue with `Cc1cccnc1[C@@H]1CCC[C@H](c2cn3c(N4C5CCC4CN(C)C5)cccc3n2)N1C`
A) 10 to 30 ×10⁻⁶ cm/s

Q) Continue with `Cc1cccnc1[C@@H]1CCC[C@H](c2cn3c(N4CCN(C5CCOCC5)CC4)cccc3n2)N1C`
A) 10 to 30 ×10⁻⁶ cm/s

Q) Continue with `CN1CCN(c2cccc3nc([C@H]4CCC[C@@H](c5ncccc5Cl)N4)cn23)CC12CC2`
A) 10 to 30 ×10⁻⁶ cm/s

Q) Continue with `CC(C)N1CCN(c2cccc3nc([C@H]4CCC[C@@H](c5ncccc5Cl)N4C)cn23)CC1`
A) 10 to 30 ×10⁻⁶ cm/s

Q) Continue with `Cc1cccnc1[C@@H]1CCC[C@H](c2cn3c(N4CCN(C)CC4)cccc3n2)N1C`
A) 10 to 30 ×10⁻⁶ cm/s

Q) Continue with `Cc1cccnc1[C@@H]1CCC[C@H](c2cn3c(N4CCN(C)CC4)cccc3n2)N1CCCO`
A) 10 to 30 ×10⁻⁶ cm/s

Q) Continue with Cc1cccnc1[C@@H]1CCC[C@H](c2nc3cccc(N4CCN5CCCC5C4)n3c2Cl)N1C (stereo partly drawn)
A) 0.1 to 10 ×10⁻⁶ cm/s

Q) Continue with `CN1CCN(c2cccc3nc([C@H]4CCC[C@@H](c5ncccc5Cl)N4C)c(Cl)n23)CC1`
A) 0.1 to 10 ×10⁻⁶ cm/s

Q) Continue with `CN1CCN(c2cccc3nc([C@H]4CCC[C@@H](c5ncccc5OC(F)(F)F)N4C)cn23)CC1`
A) 10 to 30 ×10⁻⁶ cm/s

Q) Continue with `Cc1cccnc1[C@@H]1CCC[C@H](c2nc3cccc(N4CCN(C)CC4)n3c2C)N1C`
A) 10 to 30 ×10⁻⁶ cm/s

Q) Continue with `Cc1cccnc1[C@@H]1CCC[C@H](c2nc3ccccn3c2CCCN2CCOCC2)N1C`
A) 10 to 30 ×10⁻⁶ cm/s

Q) Continue with `Cc1cccnc1[C@@H]1CCC[C@H](c2nc3cccc(N4CCN(C)CC4)n3c2Br)N1C`
A) 0.1 to 10 ×10⁻⁶ cm/s

Q) Continue with `Cc1cccnc1[C@@H]1CCC[C@H](c2cn3c(N4CCN(C)CC4)ccc(N)c3n2)N1C`
A) 10 to 30 ×10⁻⁶ cm/s

Q) Continue with `Cc1cccnc1[C@@H]1CCC[C@H](c2cn3ccccc3n2)N1Cc1ccccc1-n1cccn1`
A) 10 to 30 ×10⁻⁶ cm/s

Q) Continue with `Cc1cccnc1[C@@H]1CCC[C@H](c2nc3cccc(N4CCC(N(C)C)CC4)n3c2Cl)N1C`
A) 0.1 to 10 ×10⁻⁶ cm/s

Q) Continue with `CN1[C@@H](c2cn3c(N4CCNC5(CC5)C4)cccc3n2)CCC[C@H]1c1ncccc1Cl`
A) 10 to 30 ×10⁻⁶ cm/s

Q) Continue with `CCN1CCN(c2cccc3nc([C@H]4CCC[C@@H](c5ncccc5C(C)C)N4C)cn23)CC1`
A) 0.1 to 10 ×10⁻⁶ cm/s

Q) Continue with `COc1cccnc1[C@@H]1CCC[C@H](c2cn3c(N4CCN(C)CC4)cccc3n2)N1`
A) > 30 ×10⁻⁶ cm/s

Q) Continue with `Cc1cccnc1[C@@H]1CCC[C@H](c2nc3cccc(N4CC5CCC(C4)N5C)n3c2Cl)N1C`
A) 0.1 to 10 ×10⁻⁶ cm/s

Q) Continue with `Cc1cccnc1[C@@H]1CCC[C@H](c2cn3c(N4CCN(C)CC4)cccc3n2)N1C(C)C`
A) 10 to 30 ×10⁻⁶ cm/s

Q) Continue with `Cc1cccnc1[C@@H]1CCC[C@H](c2nc3ccccn3c2C=C2CCN(C)CC2)N1C`
A) 10 to 30 ×10⁻⁶ cm/s

Q) Continue with `COc1cccnc1[C@@H]1CCC[C@H](c2cn3c(N4CCNC5(CC5)C4)cccc3n2)N1`
A) > 30 ×10⁻⁶ cm/s

Q) Continue with `Cc1cccnc1[C@@H]1CCC[C@H](c2cn3c(N4C5CCC4CN(C)C5)cccc3n2)N1`
A) 10 to 30 ×10⁻⁶ cm/s

Q) Continue with `C#Cc1c([C@H]2CCC[C@@H](c3ncccc3C)N2C)nc2cccc(N3CCN(C)CC3)n12`
A) 0.1 to 10 ×10⁻⁶ cm/s

Q) Continue with `Cc1cccnc1[C@@H]1CCC[C@H](c2nc3cccc(N4CCN(C)CC4)n3c2Cl)N1`
A) 10 to 30 ×10⁻⁶ cm/s

Q) Continue with `CCN1CCN(Cc2c([C@H]3CCC[C@@H](c4ncccc4C)N3C)nc3ccccn23)CC1`
A) > 30 ×10⁻⁶ cm/s

Q) Continue with `CCN1CCN(c2cccc3nc([C@H]4CCC[C@@H](c5ncccc5C(C)C)N4C)c(CO)n23)CC1`
A) 10 to 30 ×10⁻⁶ cm/s
